# Test system: DU-4475
# Assay details: normalised viability (% of control), CellTiter-Blue; higher = more viable cells (about 100 = DMSO control)
# Assay setup: 30 nM; incubation time: 72 h
Some molecules, each annotated with its measured normalised viability.
Test readout: normalised viability (%)

[[record]]
molecule = "CC(=O)c1c(C)c2cnc(Nc3ccc(N4CCNCC4)cn3)nc2n(C2CCCC2)c1=O"
test_readout = "normalised viability"
reported_measurement = 99.7

[[record]]
molecule = "Nc1nc2[nH]cnc2c(=S)[nH]1 [Thioguanine]"
test_readout = "normalised viability"
reported_measurement = 112

[[record]]
molecule = "O=NN(CCCl)C(=O)NCCCl [Carmustine]"
test_readout = "normalised viability"
reported_measurement = 83.5

